- PROTOCOL TEXT: Stability of the compound in phosphate buffer at pH 7.4 assessed as compound remaining at 100 uM after 3 hrs by RP-HPLC analysis
- Assay type: physicochemical
- CONDITION CONTEXT: read-out: Stability
REPORTED PROPERTY: remaining at 3 h, 100 µM (%)
Answer format: numeric, % implied, no suffix.

Noted for "CC(=O)Oc1ccccc1C(=O)O" : its remaining at 3 h, 100 µM reads 90

---

- PROTOCOL TEXT: Stability of the compound in human serum assessed as half life at 200 uM by RP-HPLC analysis
- Type: ADME, cell-free
REPORTED PROPERTY: half-life at 200 µM (min)

These recorded examples may help you get a feel for the data.
INSERT INTO assay_data (compound, reading) VALUES
  ('NC(=O)c1nonc1CSCC(=O)Oc1ccccc1C(=O)O', 27),
  ('NC(=O)c1c(CSCC(=O)Oc2ccccc2C(=O)O)no[n+]1[O-]', 27),
  ('CC(=O)Oc1ccccc1C(=O)O [ASPIRIN]', 63),
  ('O=C(CCOc1no[n+]([O-])c1-c1ccccc1)Oc1ccccc1C(=O)O', 35);

I. N#Cc1nonc1CSCC(=O)Oc1ccccc1C(=O)O
II. O=C(CCOc1no[n+]([O-])c1S(=O)(=O)c1ccccc1)Oc1ccccc1C(=O)O
Ask | Hello, I am sorting some records. Could you say if I or II has the smaller half-life at 200 µM value? State the label of the item chosen.
Reply | I

1. O=C(CCOc1nonc1S(=O)(=O)c1ccccc1)Oc1ccccc1C(=O)O
2. N#Cc1c(CSCC(=O)Oc2ccccc2C(=O)O)no[n+]1[O-]
Ask | Hello, I am sorting some records. Could you say if 1 or 2 has the smaller half-life at 200 µM value? State the label of the item chosen.
Reply | 2

---

- PROTOCOL TEXT: Stability of the compound in phosphate buffer at pH 7.4 assessed as half life at 100 uM by RP-HPLC analysis
- Format: physicochemical
REPORTED PROPERTY: half-life at 100 µM (h)

INSERT INTO measurements (structure_as_smiles, reported_property, reading) VALUES
  ('NC(=O)c1nonc1CSCC(=O)Oc1ccccc1C(=O)O', 'half-life at 100 µM', 0.833),
  ('NC(=O)c1c(CSCC(=O)Oc2ccccc2C(=O)O)no[n+]1[O-]', 'half-life at 100 µM', 0.75),
  ('O=C(CCOc1nonc1-c1ccccc1)Oc1ccccc1C(=O)O', 'half-life at 100 µM', 5.3),
  ('N#Cc1c(CSCC(=O)Oc2ccccc2C(=O)O)no[n+]1[O-]', 'half-life at 100 µM', 0.55);

A. O=C(CCOc1no[n+]([O-])c1-c1ccccc1)Oc1ccccc1C(=O)O
B. N#Cc1nonc1CSCC(=O)Oc1ccccc1C(=O)O
Ask | // max by half-life at 100 µM over [ A , B ] State the label of the item chosen.
Reply | A

---

- Tested on: Rattus norvegicus
- PROTOCOL TEXT: Ulcerogenicity in Wistar rat assessed as damage in gastric mucosa-lesion index at dose equimolar to 120 mg/kg aspirin, administered intragastrically after 3 hrs by stereomicroscopy
- Format: toxicity, organism-based
- Set-up: dose 120 mg/kg, route intragastric
- CONDITION CONTEXT: in vivo, po
REPORTED PROPERTY: UI (mm)
Answer format: numeric, mm implied, no suffix.

These recorded examples may help you get a feel for the data.
INSERT INTO assay_data (structure_as_smiles, study_system, output_unit, reading) VALUES
  ('N#Cc1nonc1CSCC(=O)Oc1ccccc1C(=O)O', 'Rattus norvegicus', 'mm', 0.2),
  ('O=C(CCOc1no[n+]([O-])c1S(=O)(=O)c1ccccc1)Oc1ccccc1C(=O)O', 'Rattus norvegicus', 'mm', 0.4);

Noted for "O=C(CCOc1nonc1-c1ccccc1)Oc1ccccc1C(=O)O" : its UI reads 1.2

Noted for "NC(=O)c1nonc1CSCC(=O)Oc1ccccc1C(=O)O" : its UI reads 0.3

Noted for "O=C(CCOc1nonc1S(=O)(=O)c1ccccc1)Oc1ccccc1C(=O)O" : its UI reads 0.3

Noted for "N#Cc1c(CSCC(=O)Oc2ccccc2C(=O)O)no[n+]1[O-]" : its UI reads 1.2

Noted for "O=C(O)c1ccccc1O" : its UI reads 1.1

Noted for "O=C(CCOc1no[n+]([O-])c1-c1ccccc1)Oc1ccccc1C(=O)O" : its UI reads 0.3
